# tested on: human recombinant 5-HT2c receptor (Homo sapiens)
# Construct: expressed in transfected cells; host or cells: CHO K1 (Chinese hamster ovary), stably transfected
# Sequence (P28335 33-458): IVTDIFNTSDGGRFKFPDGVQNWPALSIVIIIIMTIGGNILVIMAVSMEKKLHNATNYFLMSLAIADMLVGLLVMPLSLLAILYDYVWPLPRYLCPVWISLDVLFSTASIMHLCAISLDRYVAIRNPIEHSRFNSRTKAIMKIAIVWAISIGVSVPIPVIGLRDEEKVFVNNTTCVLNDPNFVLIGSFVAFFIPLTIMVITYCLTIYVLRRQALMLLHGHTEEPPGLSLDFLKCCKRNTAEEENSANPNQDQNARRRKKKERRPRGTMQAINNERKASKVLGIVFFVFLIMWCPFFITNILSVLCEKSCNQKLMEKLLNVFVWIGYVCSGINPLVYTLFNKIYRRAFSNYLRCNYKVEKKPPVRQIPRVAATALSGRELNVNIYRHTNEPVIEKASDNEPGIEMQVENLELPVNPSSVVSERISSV
# test summary: FLIPR fluorescent Ca2+ mobilisation agonist assay in CHO K1 cells (Method 1)
# Type: cell-based
# condition label: CHO-K1, efficacy, percentage of mean maximal response to 10 μM 5-HT
Structures can show the parent of a compound that is named as a salt.
Reported Emax is given for each of the following molecules.
Answer with the value and then the unit.

Illustrative cases are given below, each with its answer.
molecule: C1CCN(c2nc3c(c(N4CCSCC4)n2)CCNCC3)C1 [Example 106]
reported measurement: 78.4%
--
molecule: CNc1nc(N2CCSCC2)nc2c1CCNCC2 [Example 93]
reported measurement: 77%
--
molecule: CN(C)c1ncc2c(n1)CCNCC2 [Example 50, hydrochloride]
reported measurement: 100%
--
molecule: CC1CNCCc2cnc(Cc3ccccc3)nc21 (single isomer, unassigned) [47 (Peak 2)]
reported measurement: 76.6%
--
molecule: CC1CCCN(c2nc(Cc3ccccc3)nc3c2CCNCC3)C1 (stereo not shown) [Example 30, hydrochloride]
reported measurement: 54.8%
--
molecule: OC1(CNc2nc(Cc3ccccc3)nc3c2CCNCC3)CCC1 [Example 41, hydrochloride]
reported measurement: 74.7%

Task: Entry CCNc1nc(N2CCc3ccccc3C2)nc2c1CCNCC2 [Example 87] : reported Emax = ?
Output: 57.1%

Task: Entry c1ccc(Cc2nc3c(c(OCC4CCOCC4)n2)CCNCC3)cc1 [Example 80] : reported Emax = ?
Output: 74.2%

Task: Entry CN(C)c1nc(N(C)Cc2ccccc2)nc2c1CCNCC2 [Example 14] : reported Emax = ?
Output: 50.8%

Task: Entry CCCCNc1nc(N2CCSCC2)nc2c1CCNCC2 [Example 89] : reported Emax = ?
Output: 48.2%
